Assay: Trained taste panel, individual alkamides and blend vs ethanol extract
Assay type: in vivo, human
Conditions: 5% pea protein isolate with 200 μl ethanol; levels per sample in Table 12
RECORDED_METRIC: Off Taste: Astringent (intensity)

Example compounds with recorded Off Taste: Astringent (intensity):
COMPOUND	READOUT_VALUE
CCCCCCCCCCCCCCCCCC(=O)NCc1ccccc1 [N-Benzyloctadecanamide, N-Benzyl octadecanamide]	2
CCCCCCCCC/C=C/C=C/C(=O)CCCC(=O)NCc1ccccc1 [Macamide 2]	2
CCCCCCCCCCCCCCCC(=O)NCc1ccccc1 [Macamide 1, N-benzylhexadecanamide]	2

Note: attention shifts to another entry.
Problem: Entry CCCCCCCC/C=C\CCCCCCCC(=O)NCc1ccccc1 [N-Benzyloleamide] needs its Off Taste: Astringent (intensity) filled in; supply it.
Solution: 4

---

Test: Trained taste panel, individual alkamides and blend vs ethanol extract
Type: in vivo, human
Details: 5% pea protein isolate with 200 μl ethanol; levels per sample in Table 12; 1 is best, 10 is worst
Procedure: Additional compositions were prepared (Table 12) and assessed by a trained taste panel for taste modulating activity as compared to an ethanol extract of L. meyenii. The protein control sample was a 5% pea protein isolate solution with 200 μl of ethanol added thereto.
RECORDED_METRIC: Liking Score
Keep the answer to the number alone.

Completed entries (count: 3):
COMPOUND	Liking Score
CCCCCCCCCCCCCCCCCC(=O)NCc1ccccc1 [N-Benzyloctadecanamide, N-Benzyl octadecanamide]	1
CCCCCCCC/C=C\CCCCCCCC(=O)NCc1ccccc1 [N-Benzyloleamide]	2
CCCCCCCCCCCCCCCC(=O)NCc1ccccc1 [Macamide 1, N-benzylhexadecanamide]	1

Field: next compound
Problem: Give the reported value of Liking Score for this record: CCCCCCCCC/C=C/C=C/C(=O)CCCC(=O)NCc1ccccc1 [Macamide 2]
Solution: 2

---

Assay: Trained taste panel, individual alkamides and blend vs ethanol extract
Format: in vivo, human
Conditions: 5% pea protein isolate with 200 μl ethanol; levels per sample in Table 12
Measured Off Taste: Burnt (intensity) accompanies every entry in the list below.
API doc: respond with a numeric literal and nothing else, no unit.

Here's what some known entries look like.
COMPOUND	READOUT_VALUE
CCCCCCCC/C=C\CCCCCCCC(=O)NCc1ccccc1 [N-Benzyloleamide]	0
CCCCCCCCC/C=C/C=C/C(=O)CCCC(=O)NCc1ccccc1 [Macamide 2]	0
CCCCCCCCCCCCCCCCCC(=O)NCc1ccccc1 [N-Benzyloctadecanamide, N-Benzyl octadecanamide]	0

Problem: Dear colleague, please send me the reported Off Taste: Burnt (intensity) for CCCCCCCCCCCCCCCC(=O)NCc1ccccc1 [Macamide 1, N-benzylhexadecanamide] when you can.
Solution: 0
